System: KM12
Assay: NCI tumour cell line growth inhibition, 48 h
The source made the active and inactive calls. Rule as the data show it: active = GI50 up to about 1.1 µM and inactive = higher.
Can you tell me GI50 for the items I'm about to list?

-- ask Given the molecule CC1(C)O[C@@H]2C[C@H]3[C@@H]4C[C@H](F)C5=CC(=O)C=C[C@]5(C)[C@@]4(F)[C@@H](O)C[C@]3(C)[C@]2(C(=O)CO)O1 [FLUOCINOLONE ACETONIDE] , what is its reported GI50?
-- reply > 100 µM (inactive)

-- ask Given the molecule O=C(Nc1ccc(Cl)cc1)c1cc(S(=O)(=O)Nc2n[nH]c(Nc3ccc4ccccc4c3)n2)c(SSc2cc(Cl)c(C(=O)Nc3ccc(Cl)cc3)cc2S(=O)(=O)Nc2n[nH]c(Nc3ccc4ccccc4c3)n2)cc1Cl , what is its reported GI50?
-- reply 20 µM (inactive)

-- ask Given the molecule CC1OC(OC2C(CO)OC(O[C@H]3CC[C@@]4(C)C(=CC[C@H]5[C@@H]6C[C@@H]7O[C@](O)(CC[C@H](C)COC8OC(CO)C(O)C(O)C8O)[C@@H](C)[C@@H]7[C@@]6(C)CC[C@@H]54)C3)C(OC3OC(C)C(O)C(O)C3O)C2O)C(O)C(O)C1O (stereo partly specified) , what is its reported GI50?
-- reply 2.36 µM (inactive)

-- ask Given the molecule Cc1cc2c(=O)cc(-c3ccc(F)cc3)oc2c(C(=O)O)c1C , what is its reported GI50?
-- reply > 100 µM (inactive)

-- ask Given the molecule Cc1nnc2ccccc2c1O , what is its reported GI50?
-- reply > 100 µM (inactive)

-- ask Given the molecule CCOP(=O)(OCC)OC1CC(n2cnc3c(N(CC)CC)ncnc32)OC1CO[Si](C)(C)C(C)(C)C (stereo unspecified) , what is its reported GI50?
-- reply 19.7 µM (inactive)

---

System: A498
Experiment: NCI tumour cell line growth inhibition, 48 h
Active and inactive are the calls of the source. Rule as the data show it: active = GI50 up to about 1.1 µM and inactive = higher.
Can you tell me GI50 for the items I'm about to list?

-- ask Which GI50 is reported with A498 for this entry: CC1=C(C(=O)NNC(=O)c2ccccc2)CC(C(=O)NNC(=O)c2ccccc2)=C(C)N1 ?
-- reply > 100 µM (inactive)

-- ask Which GI50 is reported with A498 for this entry: NCCNC(=S)S ?
-- reply > 100 µM (inactive)

-- ask Which GI50 is reported with A498 for this entry: CSc1nc2ccccc2c(=O)n1/N=C1\C(=O)N(CN2CCOCC2)c2ccc(Cl)cc21 ?
-- reply 26.2 µM (inactive)

-- ask Which GI50 is reported with A498 for this entry: COc1cc(/C=C2\C(=O)N(Cc3ccccc3)C(c3ccccc3)S2(=O)=O)cc(OC)c1OC (stereo not given) ?
-- reply 21.4 µM (inactive)

-- ask Which GI50 is reported with A498 for this entry: CCN(CC)CCC(=O)c1ccc(Sc2ccc(F)cc2)cc1 ?
-- reply 26.4 µM (inactive)

-- ask Which GI50 is reported with A498 for this entry: Cc1cc(N(CCC#N)CCC#N)ccc1/C=N\c1ccc(C(=O)NN2C(=O)/C(=C/c3ccc(N(CCC#N)CCC#N)cc3)N=C2c2cc([N+](=O)[O-])ccc2Cl)cc1 ?
-- reply > 100 µM (inactive)

-- ask Which GI50 is reported with A498 for this entry: C/C([O-])=C(/c1nc(-c2ccc([N+](=O)[O-])o2)no1)[n+]1cc(C)ccc1C ?
-- reply 18.3 µM (inactive)

-- ask Which GI50 is reported with A498 for this entry: COC(=O)C1=COC2OC3/C(=C\c4ccc(O)c(OC)c4)C(=O)OC34C=CC1C24 (stereo not given) ?
-- reply 27.7 µM (inactive)

-- ask Which GI50 is reported with A498 for this entry: O=C(CCc1ccc(O)c(O)c1)NCCc1cc(O)c(O)c(O)c1 ?
-- reply > 100 µM (inactive)

-- ask Which GI50 is reported with A498 for this entry: CC(=O)/C(=C\I)c1ccccc1 ?
-- reply 17.7 µM (inactive)

---

System: COLO 205
Test: NCI tumour cell line growth inhibition, 48 h
Calls of active or inactive are those of the source. Cut-off read from the data, not from the text of the source: active = GI50 up to about 1.1 µM and inactive = higher.
Can you tell me GI50 for the items I'm about to list?

-- ask Given the molecule COCN1C(N)=C(C(=O)OC(C)(C)C)C2=CC(=O)C=CC21C (stereo not drawn) , what is its reported GI50?
-- reply 5.01 µM (inactive)

-- ask Given the molecule O=C(NN=C1CCCCC1)Nc1ccccc1Cl , what is its reported GI50?
-- reply 31.3 µM (inactive)

-- ask Given the molecule COC(=O)C1CC2(C)C=CC1N(C(=O)OCc1ccccc1)C2 (stereo not drawn) , what is its reported GI50?
-- reply > 100 µM (inactive)

-- ask Given the molecule C/C(CC(=O)Nc1cccc(C)c1C)=N\NC(N)=S , what is its reported GI50?
-- reply > 100 µM (inactive)

-- ask Given the molecule N#Cc1cccc2c1Nc1ccccc1S2 , what is its reported GI50?
-- reply > 100 µM (inactive)

-- ask Given the molecule CSc1nc(=S)[nH]c2c1c(C)nn2-c1ccccc1 , what is its reported GI50?
-- reply 20.1 µM (inactive)

-- ask Given the molecule C[N+](C)(C)CC1CCCC/C1=N\OC(=O)c1ccccc1 (stereo not drawn) , what is its reported GI50?
-- reply > 100 µM (inactive)

-- ask Given the molecule O=C(N/N=C/C=C/c1ccc([N+](=O)[O-])o1)c1ccc(Br)s1 , what is its reported GI50?
-- reply 17 µM (inactive)

-- ask Given the molecule COC(=O)c1c(C)cccc1C1CN=NC12Cc1ccccc1C2=O (stereo not drawn) , what is its reported GI50?
-- reply 60.8 µM (inactive)

-- ask Given the molecule C/C([O-])=C(/c1nc(-c2ccc([N+](=O)[O-])o2)no1)[n+]1cc(C)ccc1C , what is its reported GI50?
-- reply 6.08 µM (inactive)

-- ask Given the molecule O=C1c2cccc([N+](=O)[O-])c2C(=O)N1c1ncn[nH]1 , what is its reported GI50?
-- reply > 100 µM (inactive)

-- ask Given the molecule CNc1cc2oc(=O)cc(C)c2cc1C , what is its reported GI50?
-- reply > 100 µM (inactive)

-- ask Given the molecule Cc1c(N=NN(C)C)cc[n+]([O-])c1C , what is its reported GI50?
-- reply > 100 µM (inactive)

-- ask Given the molecule Nc1ccc(C(=O)N/C(=C\c2cccc([N+](=O)[O-])c2)c2nc3c4c(ccc3[nH]2)C(=O)c2ccccc2C4=O)cc1 , what is its reported GI50?
-- reply > 100 µM (inactive)

-- ask Given the molecule CC(=O)N1CCn2c1nc1cc(Cl)ccc12 , what is its reported GI50?
-- reply > 100 µM (inactive)

-- ask Given the molecule Cc1cccc(C[C@@]2(SCc3ccccc3)C(C)(C)[C@@H]3CC[C@@]2(C)C3)n1 , what is its reported GI50?
-- reply 15.6 µM (inactive)

-- ask Given the molecule Cc1ccc2c(c1)Nc1cc(C(F)(F)F)ccc1[PH]2=O (stereo not drawn) , what is its reported GI50?
-- reply 16.1 µM (inactive)

-- ask Given the molecule O=C1N(c2ccccc2)C(=O)C2(SC=NN2Cc2ccccc2)N1c1ccccc1 (stereo not drawn) , what is its reported GI50?
-- reply > 100 µM (inactive)

-- ask Given the molecule O=C(CCC1CCCCN1)Nc1ccc2c(c1)C(=O)c1ccc(NC(=O)CCN3CCCCC3)cc1C2=O (stereo not drawn) , what is its reported GI50?
-- reply 1.35 µM (inactive)

-- ask Given the molecule O=C(NC(c1ccccc1)C(O)C(=O)OCc1ccc2c(c1)C(=O)c1ccccc1C2=O)c1ccccc1 (stereo not drawn) , what is its reported GI50?
-- reply 48.4 µM (inactive)

-- ask Given the molecule CCOC(=O)C(C)(C)Oc1ccc(Cl)cc1 [CLOFIBRATE] , what is its reported GI50?
-- reply 202 µM (inactive)

-- ask Given the molecule Cc1cccc(Nc2nc3ccccc3nc2NS(=O)(=O)c2ccccc2)c1 , what is its reported GI50?
-- reply 16.1 µM (inactive)

-- ask Given the molecule O=NN(CCCl)C(=O)N[C@H]1CC[C@@H](C(=O)O)CC1 , what is its reported GI50?
-- reply > 100 µM (inactive)

-- ask Given the molecule O=C(O)CCSC(=O)Nc1cccc2ccccc12 , what is its reported GI50?
-- reply > 100 µM (inactive)

-- ask Given the molecule COc1ccc(C(=O)/C=C/c2ccc(OCC#N)cc2)cc1 , what is its reported GI50?
-- reply 21.7 µM (inactive)

-- ask Given the molecule CN(N=O)C(=O)NNC(=O)N(C)N=O , what is its reported GI50?
-- reply 50.1 µM (inactive)

-- ask Given the molecule COc1cc(Nc2nc3ccc(C(F)(F)F)cc3nc2-c2ccccc2)cc(OC)c1OC , what is its reported GI50?
-- reply > 10 µM (inactive)

-- ask Given the molecule Cc1ccc(S(=O)(=O)N/N=C2/CC3CCC4CC2CC34)cc1 (stereo not drawn) , what is its reported GI50?
-- reply 55 µM (inactive)

-- ask Given the molecule CCN(CC)CCN1C(=O)c2c(c(-c3ccccc3)c3ccccc3c2-c2ccccc2)C1=O , what is its reported GI50?
-- reply > 100 µM (inactive)

-- ask Given the molecule CCOC(=O)C1C(c2ccc(Cl)cc2Cl)NC(c2ccc(C)cc2)C(C(=O)OC)S1(=O)=O (stereo not drawn) , what is its reported GI50?
-- reply > 100 µM (inactive)

-- ask Given the molecule CC(=O)OC1[C@H](OC(C)=O)C2=C(C)[C@@H](OC(C)=O)C[C@@]2(C(C)(C)O)[C@@H](OC(C)=O)[C@H]2[C@@]1(C)[C@@H](OC(C)=O)CC(OC(C)=O)[C@]21CO1 (stereo partly drawn) , what is its reported GI50?
-- reply > 100 µM (inactive)

-- ask Given the molecule CNC(=O)C1CCCN1C(=O)C(Cc1c[nH]cn1)NC(=O)C1CCC(=O)N1 (stereo not drawn) , what is its reported GI50?
-- reply > 100 µM (inactive)

-- ask Given the molecule COC(=O)C(=C/c1ccc(OC)cc1)/C(C(=O)O)=C(/C)c1ccccc1 , what is its reported GI50?
-- reply > 100 µM (inactive)

-- ask Given the molecule COC1=CC(=O)C2C(C1=O)C(c1ccc(Cl)cc1)[C@@H]2C (stereo partly drawn) , what is its reported GI50?
-- reply 35 µM (inactive)

-- ask Given the molecule O=C(O)c1ccc(-c2nc3cc(Cl)ccc3[nH]2)cc1 , what is its reported GI50?
-- reply > 100 µM (inactive)

-- ask Given the molecule c1ccc(COc2ncccc2C2SCCCS2)cc1 , what is its reported GI50?
-- reply > 100 µM (inactive)

-- ask Given the molecule O=C(O)CSc1ncccc1[N+](=O)[O-] , what is its reported GI50?
-- reply > 100 µM (inactive)

-- ask Given the molecule O=C(O)Cc1c(-c2ccc([N+](=O)[O-])cc2)c(=O)oc2cc(O)ccc12 , what is its reported GI50?
-- reply 34.2 µM (inactive)

-- ask Given the molecule O=P(O)(O)OP(=O)(O)O , what is its reported GI50?
-- reply > 100 µM (inactive)

-- ask Given the molecule CC(=O)N(C(C)=O)n1c(-c2ccccc2)n[nH]c1=O , what is its reported GI50?
-- reply > 100 µM (inactive)

-- ask Given the molecule C=C1CC(Cn2ccc(=O)[nH]c2=O)(c2ccc(Cl)cc2)OC1=O (stereo not drawn) , what is its reported GI50?
-- reply 1.73 µM (inactive)

-- ask Given the molecule Cc1cccc(NS(=O)(=O)c2ccc(/N=N/c3c(O)c(C(=O)O)cc4ccccc34)cc2)n1 , what is its reported GI50?
-- reply > 100 µM (inactive)

-- ask Given the molecule CC(=O)CC1CCC(=O)/C=C/C(=O)OC(CC(C)=O)CCC(=O)/C=C/C(=O)O1 (stereo not drawn) , what is its reported GI50?
-- reply 1.77 µM (inactive)

Hello, the source for this data is ChEMBL document CHEMBL1201862, in case you need it.
